- System Under Test: T1, HLA-A2/E6 (29-38) tetramer (human; HPV 16)
- T1 construct: also called E6(29-38) peptide-MHC tetramer; E6(29-38)-loaded tetramer
- Protocol: tetramer flow cytometry; transfected 1:1 CD4+ and CD4+/CD8+ Jurkat-derived cells;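 note: cell mixtures transiently transfected with TCR-encoding plasmids, analysed by flow cytometry 48 h later after HLA-A*02:01 E6 tetramer staining combined with anti-CD8 antibody co-staining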
Readout Label: % cells in E6 tet+/CD8+ quadrant (%)

>  <Binder>
TCR 30 (codon optimized, cysteine modified version) (TCR, V domains shown) V domain 1: DAKTTQPPSMDCAEGRAANLPCNHSTISGNEYVYWYRQIHSQGPQYIIHGLKNNETNEMASLIITEDRKSSTLILPHATLRDTAVYYCIVRGTSVLQGNEKLTFGTGTRLTIIP V domain 2: EPEVTQTPSHQVTQMGQEVILRCVPISNHLYFYWYRQILGQKVEFLVSFYNNEISEKSEIFDDQFSVERPDGSNFTLKIRSTKLEDSAMYFCASSRQPSSGNTIYFGEGSWLTVVE

>  <Readout Label>
% cells in E6 tet+/CD8+ quadrant

>  <Reported>
31

$$$$
